tgt: L-type calcium channel (Felis catus)
assay.method.text: Inhibition of (-)-[3H]- D-888 binding to L-type calcium channels in kitten heart ventricle membranes
property.measured: IC50 (nM)
Give the value in nM but do not write nM after it.

The recorded IC50 with L-type calcium channel (Felis catus) for COc1ccc(CCN(C)C2CCCC(C(C#N)(c3ccc(OC)c(OC)c3)C(C)C)C2)cc1OC (stereo unspecified) was 260
